Target: T1, EsCas13d, nuclease-dead (Eubacterium siraeum, UniProt B0MS50, R295A;H300A;R849A;H854A)
T1 sequence: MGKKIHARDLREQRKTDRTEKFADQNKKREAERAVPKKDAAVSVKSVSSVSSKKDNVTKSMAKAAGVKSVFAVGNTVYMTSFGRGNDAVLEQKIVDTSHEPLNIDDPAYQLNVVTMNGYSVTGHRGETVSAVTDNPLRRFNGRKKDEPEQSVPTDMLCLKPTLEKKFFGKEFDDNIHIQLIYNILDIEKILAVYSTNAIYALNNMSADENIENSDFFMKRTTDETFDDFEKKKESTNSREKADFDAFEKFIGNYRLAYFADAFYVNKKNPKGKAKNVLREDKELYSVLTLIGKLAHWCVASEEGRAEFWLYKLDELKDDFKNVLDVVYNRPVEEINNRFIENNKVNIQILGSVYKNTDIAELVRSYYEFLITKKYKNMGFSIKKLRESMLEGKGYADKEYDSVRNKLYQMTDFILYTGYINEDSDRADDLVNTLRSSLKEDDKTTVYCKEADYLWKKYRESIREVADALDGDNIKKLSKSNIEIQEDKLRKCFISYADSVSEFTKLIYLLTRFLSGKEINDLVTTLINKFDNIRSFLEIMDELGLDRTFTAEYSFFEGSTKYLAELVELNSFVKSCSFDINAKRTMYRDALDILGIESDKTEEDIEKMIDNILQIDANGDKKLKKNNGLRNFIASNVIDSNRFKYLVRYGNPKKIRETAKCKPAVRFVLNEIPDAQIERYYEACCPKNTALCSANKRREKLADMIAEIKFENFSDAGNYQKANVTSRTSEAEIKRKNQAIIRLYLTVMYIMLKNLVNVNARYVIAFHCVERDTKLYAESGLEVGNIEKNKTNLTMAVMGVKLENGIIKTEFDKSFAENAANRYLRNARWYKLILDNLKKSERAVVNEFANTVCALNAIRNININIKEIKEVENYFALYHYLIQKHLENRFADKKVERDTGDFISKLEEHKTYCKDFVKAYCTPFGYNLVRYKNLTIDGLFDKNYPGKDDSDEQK
Assay: crRNA (strand 1, pre-loaded); Mg2+; 40 mM Tris-HCl pH 7.5, 150 mM NaCl, 6 mM MgCl2, 1 mM DTT, 0.1% Tween-20, 0.2 mg/ml BSA; 25 C; 10 min per concentration, then washed
Conditions: tags: His6-TwinStrep-SUMO cleaved; N-terminal SNAP kept (SNAP-Surface 488); label: 3' end held by stalled T7 RNA polymerase
MEASURED METRIC: pKd
Formally, pKd is defined as -log10 of the concentration c, with c in mol/L.

Would you please look over these solved cases?
target 1 insC 3' of 20,insA 3' of 3 (mixed) RNA 1: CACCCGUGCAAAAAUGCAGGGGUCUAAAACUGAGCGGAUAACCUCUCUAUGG RNA 2: GGGAAUGGAUCCACAUCUACGAAUUCGUACCACUAGAGAGGUUAUCCGCUACACCGAGAUCGGAAGAGCACACGU: 8.06
target 1 U8A,U11C (mixed) RNA 1: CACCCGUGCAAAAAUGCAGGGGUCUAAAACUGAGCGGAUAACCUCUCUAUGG RNA 2: GGGAAUGGAUCCACAUCUACGAAUUCGUACCAUAGAGAGGCUAACCGCUCACCGAGAUCGGAAGAGCACACGU: 7.90
target 1 U8A,U10C (mixed) RNA 1: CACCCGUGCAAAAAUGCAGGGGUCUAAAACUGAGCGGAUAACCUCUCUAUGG RNA 2: GGGAAUGGAUCCACAUCUACGAAUUCGUACCAUAGAGAGGUCAACCGCUCACCGAGAUCGGAAGAGCACACGU: 7.72
target 3 A5C,C6A (mixed) RNA 1: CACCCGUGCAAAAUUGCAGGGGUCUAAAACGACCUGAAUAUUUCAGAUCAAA RNA 2: GGGAAUGGAUCCACAUCUACGAAUUCGUUUUUGAUCUGAAAUAUUACGGUCUGCAGAUCGGAAGAGCACACGU: 7.31
target 2 MT 5'PFS UAU 3'PFS CGG (mixed) RNA 1: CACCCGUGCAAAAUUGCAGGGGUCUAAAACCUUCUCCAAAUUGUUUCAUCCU RNA 2: GGGAAUGGAUCCACAUCUACGAAUUCUAUAGGAUGAAACAAUUUGGAGAAGCGGAGAUCGGAAGAGCACACGU: 7.28

The recorded pKd for target 1 insU 3' of 15,insU 3' of 5 (mixed) RNA 1: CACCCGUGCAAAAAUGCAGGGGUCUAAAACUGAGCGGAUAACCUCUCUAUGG RNA 2: GGGAAUGGAUCCACAUCUACGAAUUCGUACCAUAGAGUAGGUUAUCCGUCUCACCGAGAUCGGAAGAGCACACGU is 7.46

The recorded pKd for target 1 MT 5'PFS GUU 3'PFS UUG (mixed) RNA 1: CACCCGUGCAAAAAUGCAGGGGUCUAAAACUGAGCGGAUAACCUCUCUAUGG RNA 2: GGGAAUGGAUCCACAUCUACGAAUUCGUUCCAUAGAGAGGUUAUCCGCUCAUUGAGAUCGGAAGAGCACACGU is 7.96

Data credit: paper PMC10786891
